This collection of values is drawn from patent US20220259593A1.

# System: K562 CRISPRi cells
# METHOD: Constant region variant library pooled growth screen, K562
# Format: cell-based, human
# ASSAY_CONDITIONS: sgRNA constant region variants; activity relative to the original, un-modified constant region cr995
# Source text: We calculated relative activities for each targeting sequence:constant region pair by normalizing its phenotype to that of the targeting sequence paired with the unmodified constant region, identifying 409 constant region variants that on average conferred intermediate activity (0.1-0.9, FIG. 5B). Ten variants selected for individual evaluation also mediated intermediate levels of mRNA knockdown (FIG. 6B). […]
ENDPOINT: Mean relative activity
Answer using only a numeral; do not append any unit.

Worked examples, 3 molecules total:
cr219 (nucleic acid, listed as DNA, chemistry not fully specified) guide: GTTTAAGAGCTAAGCTGGAAACAGCATAGCAAGTTTAAATAAGCCTAGTGCGTTATCAACTTGAGAAAGTGGCACCGAGTCGGTGCT = 0.7779
cr115 (nucleic acid, listed as DNA, chemistry not fully specified) guide: GTTTAAGAGCTAAGCTGGAAACAGCATAGCAAGTTTAAATAATGCTAGTCAGTTATCAACTCGAAAGAGTGGCACCGAGTCGGTGCT = 0.05506
cr565 (nucleic acid, listed as DNA, chemistry not fully specified) guide: GTTTAAGAGCTAAGCTGGAAACAGCATAGCAAGTTTAAATAAGGCTAGTCCGTTATCAACGCGAAAGCGTGGCACCGAGTCGGTGCT = 1.085

As a next step, examine the molecule that follows.
Assign Mean relative activity to the following record: cr723 (nucleic acid, listed as DNA, chemistry not fully specified) guide: GTTTAAGAGCTAAGCTGGAAACAGCATAGCAAGTTTAAATAAGGCTAGTCCGTTATCAACCTGAAAAGGTGGCAGCGAGTCGCTGCT
1.054
